The measured values listed here are drawn from patent US20150140123A1.

Test system: HepG2 cells
assayOverview: High content imaging cytotoxicity parameters: selected cell count per valid field (SCC) and CMFDA cytoplasm average intensity
measurementParameters: human
For each of the compounds below, state its SCC +S9 highest conc. <50% cytotox. over control.

*Q* Lab request: please report SCC +S9 highest conc. <50% cytotox. over control under test system HepG2 cells for `c1ccncc1`
*A* 1000 µM

*Q* Lab request: please report SCC +S9 highest conc. <50% cytotox. over control under test system HepG2 cells for `C[N+](C)(C)CCCl.[Cl-]`
*A* 1000 µM

*Q* Lab request: please report SCC +S9 highest conc. <50% cytotox. over control under test system HepG2 cells for Cc1c2ccccc2c(C)c2c1ccc1ccccc12 [7,12-Dimethylbenz[a]anthracene]
*A* 500 µM

*Q* Lab request: please report SCC +S9 highest conc. <50% cytotox. over control under test system HepG2 cells for `Oc1ccc(Cl)cc1Cl`
*A* 500 µM

*Q* Lab request: please report SCC +S9 highest conc. <50% cytotox. over control under test system HepG2 cells for O=P1(N(CCCl)CCCl)NCCCO1 (stereo not shown) [Cyclophosphamide]
*A* 1000 µM

*Q* Lab request: please report SCC +S9 highest conc. <50% cytotox. over control under test system HepG2 cells for C=CC(=O)OCC [Ethyl acrylate]
*A* 1000 µM

*Q* Lab request: please report SCC +S9 highest conc. <50% cytotox. over control under test system HepG2 cells for c1ccc2c(c1)cc1ccc3cccc4ccc2c1c34 [Benzo[a]pyrene]
*A* 125 µM

*Q* Lab request: please report SCC +S9 highest conc. <50% cytotox. over control under test system HepG2 cells for `Nc1ccc(Cl)cc1`
*A* 1000 µM

*Q* Lab request: please report SCC +S9 highest conc. <50% cytotox. over control under test system HepG2 cells for CCCCC(CC)COC(=O)c1ccccc1C(=O)OCC(CC)CCCC (stereo not shown) [Di-(2-ethylhexyl)phthalate]
*A* 1000 µM

*Q* Lab request: please report SCC +S9 highest conc. <50% cytotox. over control under test system HepG2 cells for O=C1NS(=O)(=O)c2ccccc21.[Na] [Sodium saccharin]
*A* 1000 µM

----------
Tested on: HepG2 cells
assayOverview: High content imaging cytotoxicity parameters: selected cell count per valid field (SCC) and CMFDA cytoplasm average intensity
measurementParameters: human, 48 h
For each of the compounds below, state its SCC +S9 highest conc. <50% cytotox. over control.

*Q* May I ask what SCC +S9 highest conc. <50% cytotox. over control has been recorded for CC1(C)S[C@@H]2[C@H](NC(=O)[C@H](N)c3ccccc3)C(=O)N2[C@H]1C(=O)O [Ampicillin trihydrate] ?
*A* 1000 µM

*Q* May I ask what SCC +S9 highest conc. <50% cytotox. over control has been recorded for Nc1nc[nH]n1 [Amitrole] ?
*A* 1000 µM

*Q* May I ask what SCC +S9 highest conc. <50% cytotox. over control has been recorded for Cc1noc(NS(=O)(=O)c2ccc(N)cc2)c1C [Sulfisoxazole] ?
*A* 1000 µM

*Q* May I ask what SCC +S9 highest conc. <50% cytotox. over control has been recorded for CCc1cc(C(N)=S)ccn1 [Ethionamide] ?
*A* 1000 µM

*Q* May I ask what SCC +S9 highest conc. <50% cytotox. over control has been recorded for NC(=S)N(C1CCCCC1)C1CCCCC1 [N,N-dicyclohexyl thiourea] ?
*A* 1000 µM

*Q* May I ask what SCC +S9 highest conc. <50% cytotox. over control has been recorded for Oc1cccc(O)c1 [1,3-Dihydroxybenzene (resorcinol), 1,3-Dihydroxybenzene] ?
*A* 1000 µM

*Q* May I ask what SCC +S9 highest conc. <50% cytotox. over control has been recorded for OC[C@@H](O)[C@@H](O)[C@H](O)[C@H](O)CO [D-mannitol] ?
*A* 1000 µM

*Q* May I ask what SCC +S9 highest conc. <50% cytotox. over control has been recorded for CC(=O)[C@H]1CC[C@H]2[C@@H]3CCC4=CC(=O)CC[C@]4(C)[C@H]3CC[C@]12C [Progesterone] ?
*A* 500 µM

*Q* May I ask what SCC +S9 highest conc. <50% cytotox. over control has been recorded for O=C(N[C@H](CO)[C@H](O)c1ccc([N+](=O)[O-])cc1)C(Cl)Cl [Chloramphenicol] ?
*A* 1000 µM

*Q* May I ask what SCC +S9 highest conc. <50% cytotox. over control has been recorded for CC(C)C=O [Isobutyraldehyde] ?
*A* 1000 µM

*Q* May I ask what SCC +S9 highest conc. <50% cytotox. over control has been recorded for c1ccc2c(c1)ccc1ccccc12 [Phenanthrene] ?
*A* 1000 µM

*Q* May I ask what SCC +S9 highest conc. <50% cytotox. over control has been recorded for CN(C)C(=O)Nc1cccc(C(F)(F)F)c1 [Fluometron] ?
*A* 1000 µM

*Q* May I ask what SCC +S9 highest conc. <50% cytotox. over control has been recorded for CC(C)(C)c1cc(O)ccc1O [Tertiary-butylhydroquinone] ?
*A* 1000 µM

*Q* May I ask what SCC +S9 highest conc. <50% cytotox. over control has been recorded for COS(C)(=O)=O [Methylmethane sulfonate] ?
*A* 500 µM

*Q* May I ask what SCC +S9 highest conc. <50% cytotox. over control has been recorded for Oc1ccc(O)cc1 [Hydroquinone] ?
*A* 1000 µM

*Q* May I ask what SCC +S9 highest conc. <50% cytotox. over control has been recorded for CC(=O)O[C@H]1C(=O)[C@@]2(C)[C@H]([C@H](OC(=O)c3ccccc3)[C@]3(O)C[C@H](OC(=O)[C@H](O)[C@@H](NC(=O)c4ccccc4)c4ccccc4)C(C)=C1C3(C)C)[C@]1(OC(C)=O)CO[C@@H]1C[C@@H]2O [Taxol] ?
*A* 500 µM

*Q* May I ask what SCC +S9 highest conc. <50% cytotox. over control has been recorded for CCCOC(=O)c1cc(O)c(O)c(O)c1 [Propyl gallate] ?
*A* 1000 µM

*Q* May I ask what SCC +S9 highest conc. <50% cytotox. over control has been recorded for COc1cc(/C=C/C(=O)CC(=O)/C=C/c2ccc(O)c(OC)c2)ccc1O [Curcumin] ?
*A* 125 µM

*Q* May I ask what SCC +S9 highest conc. <50% cytotox. over control has been recorded for O=C1CCCCC1 [Cyclohexanone] ?
*A* 1000 µM

*Q* May I ask what SCC +S9 highest conc. <50% cytotox. over control has been recorded for CCCC(O)C(CC)CO (stereo not drawn) [2-Ethyl-1,3-hexanediol] ?
*A* 1000 µM

*Q* May I ask what SCC +S9 highest conc. <50% cytotox. over control has been recorded for OCc1ccccc1 [Benzyl alcohol] ?
*A* 1000 µM

*Q* May I ask what SCC +S9 highest conc. <50% cytotox. over control has been recorded for C=CCc1ccc(O)c(OC)c1 [Eugenol] ?
*A* 125 µM

*Q* May I ask what SCC +S9 highest conc. <50% cytotox. over control has been recorded for OCCNCCO [Diethanolamine] ?
*A* 1000 µM

*Q* May I ask what SCC +S9 highest conc. <50% cytotox. over control has been recorded for COc1cc([C@@H]2c3cc4c(cc3[C@@H](O[C@@H]3O[C@@H]5CO[C@@H](C)O[C@H]5[C@H](O)[C@H]3O)[C@H]3COC(=O)[C@H]23)OCO4)cc(OC)c1O [Etoposide] ?
*A* 1000 µM
